- Test system: A549/ATCC NSCLC
- TEST_DESCRIPTION: NCI-60 one-dose screen, 48 h (100 = growth as untreated, 0 = no growth, -100 = all killed)
- MEASUREMENT_CONTEXT: 10 µM unless noted
This is part of a sample that, as a whole, favours compounds with a hit. Of some 83,000 tested, about 20% had one in any assay.
MEASURE: growth (%)
Numeric answer only, unit % assumed.

CCc1ccc2c(c1)N(CCO)C1=C(C(=O)OC1)C2c1cccc(Cl)c1 (stereo unspecified) : 26.6
COc1ccc2nc(NC(=O)/C(=C/c3cc(OC)c(OC)c(OC)c3)c3ccc(OC)c(OC)c3)sc2c1 : 85.6
CN1CCN(Cc2ccc(NC(=O)c3cccc(C#Cc4cnc(N)c5ncccc45)c3F)cc2C(F)(F)F)CC1 : 38.2
CCn1c(CN2CCN(Cc3ccccc3)CC2)nc2cc(NC(=O)c3cccs3)ccc21 : -72.9

CC(=O)OC1Oc2cc(C)c(C)cc2-c2oc(=O)c(-c3cc4ccccc4oc3=O)cc21 (stereo unspecified) has a reported growth of 113

Quick note, growth for Oc1ccc(Nc2ncnc3c2sc2ncccc23)cc1 landed at 26.9

For CC1=NC(c2ccc(Cl)cc2)C2=C(N1)/C(=C/c1ccc(Cl)cc1)CCC2 (stereo unspecified) the compound record lists growth as 89

Briefly, growth measured for CNC(=O)c1cc(Oc2ccc(NC(=O)c3nc(S(C)(=O)=O)n(C)c3-c3ccc(F)cc3)cc2)ccn1 : 82.5

###

- System: NCI-H23 lung
- TEST_DESCRIPTION: NCI-60 one-dose screen, 48 h
- MEASUREMENT_CONTEXT: 10 µM unless noted
About 83,000 compounds went through this panel and 20% of them were active in at least one assay; those are over-represented in the sample as a whole. Activity calls are given as the source filed them. Rule for the calls: active = growth percent below 10; inactive = the rest.
I would appreciate it if you answered using one of these outcomes: YES (active), NO (inactive)

Examples from the recorded data:
O=C(C(Br)C(Br)c1ccccc1)C(Br)C(Br)c1ccccc1 (stereo not given) : YES
Cc1nc2ccc(Nc3nc(N4CCOCC4)nc(N4CCN(C)CC4)n3)cc2n1Cc1ccccc1 : NO
O=c1[nH]cnc2nc[nH]c12 : NO

Please turn your attention to the following entry.
Data request: What is the recorded call for this compound in the test? NS(=O)(=O)c1ccc(N2N=C(c3ccc(Br)cc3)CC2c2cn(-c3ccccc3)nc2-c2ccc(Cl)cc2)cc1 (stereo not given)
Data returned: NO

###

- Tested on: U251 CNS
- TEST_DESCRIPTION: NCI-60 one-dose screen, 48 h
- MEASUREMENT_CONTEXT: 10 µM unless noted
The panel holds about 83,000 compounds, 20% with a hit somewhere; the sample as a whole holds those more often. Activity calls are given as the source filed them. How the source made its calls: active means growth percent below 10; inactive means the rest.
Choose the fitting class; nothing outside active, inactive is accepted.

Data request: In this assay, the call recorded for Clc1ccccc1Nc1nnc(-c2ccncc2)s1 was what?
Data returned: inactive

Data request: Could you kindly confirm the outcome this assay logged for C=CCn1c(C)nc2cc(Nc3nc(N4CCCC4)nc4nc[nH]c34)ccc21 ?
Data returned: inactive

Data request: Would you mind telling me which call this test gave COc1ccc(C2CC(c3ccc(Nc4ccnc5cc(Cl)ccc45)cc3)=NN2c2ccccc2)cc1 (centres undefined) ?
Data returned: inactive

Data request: Which result was noted for this molecule in the test: CN1CCN(Cc2ccc(NC(=O)c3cncc(C#Cc4cnc5cccnn45)c3)cc2C(F)(F)F)CC1
Data returned: active

Data request: Per the records of this test, what outcome belongs to COc1cc(/C=C/C(=O)c2c(C)nc3ccccc3c2C)ccc1OCCCOc1cc2c(cc1OC)C(=O)N1CCC[C@H]1C=N2 ?
Data returned: active

Data request: Returns: the outcome recorded for C=CC[C@]1(O)CC[C@H]2[C@@H]3CCc4cc(O)ccc4[C@H]3CC[C@@]21C in this assay.
Data returned: inactive

Data request: Please let me know the test result on file for CN(C)c1ccc(C(c2ccccc2)c2ccc(N(C)C)cc2)cc1 .
Data returned: inactive

Data request: Check the results log: what was the call for COc1ccc(/C=C(/C(=O)N2CCN(c3ccccc3)CC2)c2cc(OC)c(OC)c(OC)c2)cc1O ?
Data returned: active

Data request: Record lookup: outcome of this test for N#Cc1c(NN)n(C2OC(CO)C(O)C2O)c2ncnc(N)c12 (centres undefined) ?
Data returned: inactive

###

- Test system: HOP-92 NSCLC
- TEST_DESCRIPTION: NCI-60 one-dose screen, 48 h
- MEASUREMENT_CONTEXT: 10 µM unless noted
The panel holds about 83,000 compounds, 20% with a hit somewhere; the sample as a whole holds those more often. The source made the active and inactive calls. How the source made its calls: active means growth percent below 10; inactive means the rest.
Pick one: active, inactive

Data request: # fetch the recorded call for COc1ccc(Sc2[nH]c(C=O)c3ccccc23)cc1 here
Data returned: inactive

Data request: Given CC1(C)C(N(O)C(=O)Nc2ccc(Cl)cc2)N(c2ccc(Cl)cc2)C(=O)N1CC(=O)N/N=C/C=C/c1ccc([N+](=O)[O-])o1 (stereo not given) , state the outcome it received in this test.
Data returned: active

###

- Test system: HT29 colon
- TEST_DESCRIPTION: NCI-60 one-dose screen, 48 h (100 = growth as untreated, 0 = no growth, -100 = all killed)
- MEASUREMENT_CONTEXT: 10 µM unless noted
Compounds without any hit were thinned out: in the full panel of roughly 83,000, 20% have a hit.
growth by entry:
Give the value in % but do not write % after it.

For orientation, consider the following solved cases.
C/C(=N\OC(=O)Nc1ccccc1)c1ccccc1 : 105
CCCCn1c(-c2ccc(F)cc2)nc2cc(OC)c(OC)cc2c1=O : 107
Cc1ccc(N=CNN=C(N)N)cc1 : 105

Given item NC(=O)c1noc(C(=O)c2ccccc2)c1N , the value recorded as its growth is 83.6

Quick note, growth for COc1cc(C2CC(c3ccc(Nc4ccnc5cc(Cl)ccc45)cc3)=NN2c2ccccc2)cc(OC)c1OC (stereo not given) landed at 44.2

GET /value?item= COC1=CC(c2ccc[nH]2)=N/C1=C\c1[nH]c(C)c(C(=O)CCCCCCCCC(=O)O[C@H]2CC[C@H]3C4CCc5cc(O)ccc5C4CC[C@]23C)c1C (stereo not given in full) &field=growth returns 14.3

Just so you know, measured growth for CN1CCN(c2ccc(N3Cc4ccccc4OC4=C3C(=O)c3c(O)ccc(O)c3C4=O)cn2)CC1 came out at -42.8

###

- System: OVCAR-3 ovarian
- TEST_DESCRIPTION: NCI-60 one-dose screen, 48 h (100 = growth as untreated, 0 = no growth, -100 = all killed)
- MEASUREMENT_CONTEXT: 10 µM unless noted
- Description: Growth inhibition of the OVCAR-3 human tumor cell line is measured as a screen for anti-cancer activity. Cells are grown in 96 well plates and exposed to the test compound for 48 hours. Compounds are tested at a single concentration, which is 10^-5 M for most compounds. The reported endpoint is percent growth (GI% or GIPRCNT), where numbers from 0 - 100% represent growth inhibition, and numbers from -100% - 0 represent cell death. For example, a value of 40 represents 60% growth inhibition. […]
This is part of a sample that, as a whole, favours compounds with a hit. Of some 83,000 tested, about 20% had one in any assay.
Rule: growth below 80% gives fulfilled. Equal to or above 80% gives not fulfilled.

Use the examples below as a reference point.
COc1cc2c(cc1I)-c1c(cc(OC)c(OC)c1OC)CC[C@@H]2NC(C)=O : fulfilled
Clc1cc(Br)ccc1-c1ccc(CNCC2CCNCC2)o1 : fulfilled
CC(=O)N[C@@H](CCC(N)=O)C(=O)O : not fulfilled
COc1ccc(-c2oc(=O)ccc2-c2cc(OC)c(OC)c(OC)c2)cc1F : not fulfilled

# next compound below
Data request: Given the entry CC1=NC(c2ccc(Cl)cc2)C2=C(N1)/C(=C/c1ccc(Cl)cc1)CCC2 (stereo unspecified) , would its reported growth be below 80%?
Data returned: not fulfilled

###

- Tested on: SK-MEL-28 melanoma
- TEST_DESCRIPTION: NCI-60 one-dose screen, 48 h (100 = growth as untreated, 0 = no growth, -100 = all killed)
- MEASUREMENT_CONTEXT: 10 µM unless noted
Compounds without any hit were thinned out: in the full panel of roughly 83,000, 20% have a hit.
MEASURE: growth (%)
Please give a number only; it is taken to be in %.

The examples below pair each entry with its known result.
COCCCNCC(=O)Nc1c(C)cccc1C : 122
CCCCn1c(C)nc2cc(Nc3nc(Cl)nc4nc[nH]c34)ccc21 : 99.4
CCCCCCCCNC(C)C(O)c1ccc(SC(C)C)cc1 (stereo not given) : 74.3
Oc1[nH]c2ccc(Cl)cc2c1/C=c1/ccc2c(c1)N=C(c1ccc(F)cc1)N=2 : 53.7
Cc1ccc2oc(=O)cc(-c3nc4ccc([N+](=O)[O-])cc4[nH]3)c2c1 : 63.7
C#CC[C@@H]1C[C@]2(C)[C@H]3CC=C4[C@H]5[C@@H](C)[C@H](C)CC[C@]5(C(=O)NCCCN5CCN(CCCN)CC5)CC[C@@]4(C)[C@]3(C)CC[C@H]2C(C)(C)[C@H]1OC(C)=O : -84.6
Cc1ccccc1CNc1ncnc2[nH]ncc12 : 136
COc1ccc2[nH]c(O)c(/C=c3/ccc4c(c3)N=C(c3ccc(F)cc3)N=4)c2c1 : 72.7

The recorded growth for entry CC(C)OC(=O)c1ccc([N+](=O)[O-])cc1 equals 110

Please fill in: growth reported for CC(=O)OC1Oc2ccccc2-c2oc3nc(=N)n(C)c-3cc21 (stereo not given) = 122
